System tested: UniProtKB P35372
Sequence (P35372 whole entry): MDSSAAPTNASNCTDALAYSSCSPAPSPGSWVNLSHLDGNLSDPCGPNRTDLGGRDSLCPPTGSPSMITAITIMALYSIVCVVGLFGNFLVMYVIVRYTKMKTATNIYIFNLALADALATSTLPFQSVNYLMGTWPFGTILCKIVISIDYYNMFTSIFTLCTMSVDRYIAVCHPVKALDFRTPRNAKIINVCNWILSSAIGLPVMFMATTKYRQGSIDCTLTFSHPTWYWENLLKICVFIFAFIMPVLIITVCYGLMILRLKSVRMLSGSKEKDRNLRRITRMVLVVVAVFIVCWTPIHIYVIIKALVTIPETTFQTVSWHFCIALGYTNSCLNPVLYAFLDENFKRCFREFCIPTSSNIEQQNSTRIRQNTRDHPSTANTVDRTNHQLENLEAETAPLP
Assay notes: inhibition of agonist-stimulated [35S]GTPγS binding (in vitro antagonist activity), μ opioid receptor
Type: biochemical
Test context: inhibition of loperamide (EC80)-stimulated [35S]GTPγS binding to membranes
List of IC50 values.
Parameter measured: IC50

Record smiles | Parameter measured | Measurement
C[C@H]1CN2CCN(C(=O)c3ccccc3)C[C@H]2C[C@@]1(C)c1cccc(O)c1 | IC50 | 21 nM
C[C@H]1CN2C[C@H](c3ccccc3)NC[C@H]2C[C@@]1(C)c1cccc(O)c1 | IC50 | 12 nM
C[C@H]1CN2C[C@H](c3ccccc3)N(C)C[C@H]2C[C@@]1(C)c1cccc(O)c1 | IC50 | 26 nM
C[C@H]1CN2C[C@H](c3ccccc3)CC[C@H]2C[C@@]1(C)c1cccc(O)c1 | IC50 | 0.53 nM

Numbers sourced from patent US8580788B2.
